# System: 935938-334-R-J1-PDC complex spheroid viability
# experimental_protocol: Anticancer human tumor 935938-334-R-J1-PDC patient-derived small intestine adenocarcinoma cell line growth inhibition [POLQ]
# condition_details: second compound 0.0316 µM; first compound 10 µM; stronger effect = lower value
API: label(entry) gives TRUE if the entry's viability, T/C is strictly smaller than 30%; on equality or larger values it gives FALSE.

Worked cases, answers included:
O=c1[nH]cc(F)c(=O)[nH]1 + Nc1ccc(C#CCN(C(=O)Cc2ncc(C(F)(F)F)cc2C(F)(F)F)c2ccc(F)cc2)nn1 :: FALSE
C=CC(=O)N1CCN(c2nc(=O)n(-c3c(C)ccnc3C(C)C)c3nc(-c4c(O)cccc4F)c(F)cc23)C(C)C1 (stereo not given) + Cc1cccc(N(C)C(=O)C2C(O)CCN2c2nc(C)cc(C(F)(F)F)c2C#N)c1 :: FALSE
CC1COCCN1c1cc(C2(O)CC3CCC(C2)O3)c2cnn(-c3ccn[nH]3)c2n1 (stereo not given) + Cc1cccc(N(C)C(=O)C2C(O)CCN2c2nc(C)cc(C(F)(F)F)c2C#N)c1 :: TRUE

Next:
Problem: Regarding CC1COCCN1c1cc(C2(O)CC3CCC(C2)O3)c2cnn(-c3ccn[nH]3)c2n1 (stereo not given) + Nc1ccc(C#CCN(C(=O)Cc2ncc(C(F)(F)F)cc2C(F)(F)F)c2ccc(F)cc2)nn1 , kindly confirm whether its viability, T/C is beneath 30%.
Result: TRUE

###

# Tested on: 935938-334-R-J1-PDC complex spheroid viability
# experimental_protocol: Anticancer human tumor 935938-334-R-J1-PDC cell line growth inhibition [POLQ];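 note: spheroids exposed to drugs for seven days before viability read; 100% = DMSO vehicle control wells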
# condition_details: second compound 10 µM; first compound 0.0316 µM; stronger effect = lower value
For each of the molecules below, state its viability, T/C.
Answers are plain numbers, in %.

State the recorded viability, T/C for every item in the following list.
1. C=CC(=O)N1CCN(c2nc(=O)n(-c3c(C)ccnc3C(C)C)c3nc(-c4c(O)cccc4F)c(F)cc23)C(C)C1 (stereo not drawn) + Nc1ccc(C#CCN(C(=O)Cc2ncc(C(F)(F)F)cc2C(F)(F)F)c2ccc(F)cc2)nn1
2. CC1COCCN1c1cc(C2(O)CC3CCC(C2)O3)c2cnn(-c3ccn[nH]3)c2n1 (stereo not drawn) + COC1C(OC(N)=O)C(O)C(Oc2ccc3c(O)c(NC(=O)c4ccc(O)c(CC=C(C)C)c4)c(=O)oc3c2C)OC1(C)C
3. C=CCn1c(=O)c2cnc(Nc3ccc(N4CCN(C)CC4)cc3)nc2n1-c1cccc(C(C)(C)O)n1 + Cc1cccc(N(C)C(=O)C2C(O)CCN2c2nc(C)cc(C(F)(F)F)c2C#N)c1

Result:
1: 88.2; 2: 88.2; 3: 88.7

###

Hi there, I'd appreciate the recorded viability, T/C for every entry that follows.
# Test system: 935938-334-R-J1-PDC complex spheroid viability
# experimental_protocol: Anticancer human tumor 935938-334-R-J1-PDC cell line growth inhibition [POLQ];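 note: spheroids exposed to drugs for seven days before viability read; 100% = DMSO vehicle control wells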
# condition_details: second compound 0.1 µM; first compound 0.01 µM; stronger effect = lower value
Numbers only, in %.

Cn1ncnc1[C@H]1c2n[nH]c(=O)c3cc(F)cc(c23)N[C@@H]1c1ccc(F)cc1 + Nc1ccc(C#CCN(C(=O)Cc2ncc(C(F)(F)F)cc2C(F)(F)F)c2ccc(F)cc2)nn1 :: 97.9

Required: viability, T/C, one value per molecule below.
1. C=CCn1c(=O)c2cnc(Nc3ccc(N4CCN(C)CC4)cc3)nc2n1-c1cccc(C(C)(C)O)n1 + Nc1ccc(C#CCN(C(=O)Cc2ncc(C(F)(F)F)cc2C(F)(F)F)c2ccc(F)cc2)nn1
2. COc1cccc(OCCCN)c1-c1cc(Nc2cnc(C#N)cn2)n[nH]1 + Cc1cccc(N(C)C(=O)C2C(O)CCN2c2nc(C)cc(C(F)(F)F)c2C#N)c1

Result:
1: 81.3; 2: 75.2
